- Tgt: UniProt:P43351
- Sequence (P43351 whole entry): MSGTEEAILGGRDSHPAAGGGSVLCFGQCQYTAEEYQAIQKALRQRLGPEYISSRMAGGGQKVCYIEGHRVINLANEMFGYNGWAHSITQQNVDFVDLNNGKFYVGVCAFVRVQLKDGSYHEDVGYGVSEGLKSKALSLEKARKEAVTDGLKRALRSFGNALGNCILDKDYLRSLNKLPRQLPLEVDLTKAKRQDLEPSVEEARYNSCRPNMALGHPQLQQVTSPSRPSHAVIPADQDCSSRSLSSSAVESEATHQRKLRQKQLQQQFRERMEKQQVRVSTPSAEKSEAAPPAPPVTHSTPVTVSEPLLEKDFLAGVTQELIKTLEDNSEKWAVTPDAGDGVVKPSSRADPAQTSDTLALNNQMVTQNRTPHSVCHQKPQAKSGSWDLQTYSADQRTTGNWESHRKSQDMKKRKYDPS
- Format: functional, biochemical
Active and inactive are the calls of the source.
Readout Label: AC50

OC(CN1CCCCC1)Cn1c2ccc(Cl)cc2c2cc(Cl)ccc21 (stereo not given) : 12.1 µM (active)
CCC[C@@H](CN1CCC[C@H]1CN1C(N)=NC[C@H]1CC(C)C)N1C[C@@H](Cc2ccccc2)N(CCc2ccc(Cl)c(Cl)c2)C1=N : 14.7 µM (active)
CCN(CC)CCN1CCN(c2cncc(-c3cccc(N)c3)n2)CC1 : 1.56 µM (active)
CN1CCN(c2ccc(NC(=O)c3cc(S(N)(=O)=O)ccc3N3CCOCC3)cc2)CC1 : 8.83 µM (active)
CN1CCN(CCCNC(=O)c2ccc(/C=C3\Sc4ccccc4N(Cc4ccc(F)cc4)C3=O)cc2)CC1 : 8.2 µM (active)
